Parameter Guinea Pig Ileum Ke of Nor-BNI: see the listing below.
target: kappa receptors (Cavia porcellus, UniProt P41144); construct: The longitudinal muscle with the myenteric plexus attached was gently separated from the underlying circular muscle; from tissue; host or cells: guinea pig ileum longitudinal muscle with myenteric plexus; type: cell-based, guinea pig; note: unit not given here
Sequence (P41144 whole entry): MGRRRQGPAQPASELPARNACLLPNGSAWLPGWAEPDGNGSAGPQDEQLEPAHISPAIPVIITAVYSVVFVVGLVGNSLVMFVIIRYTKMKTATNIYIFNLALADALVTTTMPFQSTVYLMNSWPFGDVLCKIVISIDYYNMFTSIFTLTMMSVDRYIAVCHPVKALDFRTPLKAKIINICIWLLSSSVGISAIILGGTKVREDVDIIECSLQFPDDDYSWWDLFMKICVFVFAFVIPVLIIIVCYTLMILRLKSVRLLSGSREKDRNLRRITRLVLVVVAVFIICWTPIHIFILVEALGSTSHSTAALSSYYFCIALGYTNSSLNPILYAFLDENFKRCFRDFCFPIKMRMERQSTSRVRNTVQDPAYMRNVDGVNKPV
Respond with the number and no other words.

{"compound": "CN1CC[C@]23c4c5ccc(OC(=O)C(C)(C)C)c4O[C@H]2[C@@H](OS(=O)(=O)O)C=C[C@H]3[C@H]1C5 [NIDA # 20,272, 3-O-Pivaloylmorphine-6-O-sulfate]", "Guinea Pig Ileum Ke of Nor-BNI": 154.77}
{"compound": "C=CCN1CC[C@@]2(C)c3cc(O)ccc3CC1[C@@H]2C.Cl (single isomer, unassigned; (-)) [(−) SKF 10,047-HCl]", "Guinea Pig Ileum Ke of Nor-BNI": 0.08}
{"compound": "Oc1ccc2c3c1O[C@H]1[C@@H](O)C=C[C@H]4[C@@H](C2)NCC[C@@]341", "Guinea Pig Ileum Ke of Nor-BNI": 26.47}
{"compound": "CC(=O)Oc1ccc2c3c1O[C@H]1[C@@H](OS(=O)(=O)O)C=C[C@H]4[C@@H](C2)N(C)CC[C@@]341 [NIDA # 20,264, 3-O-Acetylmorphine-6-O-sulfate]", "Guinea Pig Ileum Ke of Nor-BNI": 54.42}
{"compound": "CC(C)C(=O)Oc1ccc2c3c1O[C@H]1[C@@H](OS(=O)(=O)O)C=C[C@H]4[C@@H](C2)N(C)CC[C@@]341 [NIDA # 20,271, 3-O-Isobutyrylmorphine-6-O-sulfate]", "Guinea Pig Ileum Ke of Nor-BNI": 53.14}

Noted for `CC(C)C[C@@H](NC(=O)[C@H](Cc1ccccc1)NC(=O)CNC(=O)[C@@H](C)NC(=O)[C@@H](N)Cc1ccc(O)cc1)C(=O)O` : its Guinea Pig Ileum Ke of Nor-BNI reads 38.13
